Provenance of the data: PubChem BioAssay AID485344

Kindly supply the reported inhibition values for the records listed here.
target: D(2) dopamine receptor (Homo sapiens) (UniProt P14416); experiment: HTS Assay for Allosteric Antagonists of the Human D2 Dopamine Receptor: Primary Screen for Antagonists; conditions: HEK293 TREx D2 cells, calcium flux, dopamine EC80; at 10 µM; active compounds read high; further: 0% is about no effect
Sequence (P14416 whole entry, looked up): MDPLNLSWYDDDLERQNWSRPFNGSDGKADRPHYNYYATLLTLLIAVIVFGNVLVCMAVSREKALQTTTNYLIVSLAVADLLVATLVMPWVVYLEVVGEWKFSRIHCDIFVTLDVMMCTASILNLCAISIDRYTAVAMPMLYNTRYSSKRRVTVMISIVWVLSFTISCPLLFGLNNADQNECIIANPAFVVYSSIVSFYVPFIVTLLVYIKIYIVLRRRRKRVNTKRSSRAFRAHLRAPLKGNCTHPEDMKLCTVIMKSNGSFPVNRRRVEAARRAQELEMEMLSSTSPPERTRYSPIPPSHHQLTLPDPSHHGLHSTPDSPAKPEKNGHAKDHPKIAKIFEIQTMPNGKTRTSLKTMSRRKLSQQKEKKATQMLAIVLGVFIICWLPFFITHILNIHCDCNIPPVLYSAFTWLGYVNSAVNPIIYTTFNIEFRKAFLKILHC
In all, about 340,000 compounds went through this assay and about 6,900 (2%) were called active. The full list was thinned out, with actives kept by preference.
One number for each entry, in %.

Guide cases for inhibition, answers given:
1. CCS(=O)(=O)N1CCC(C(=O)N2CCN(c3ccccc3)CC2)CC1 | -2.98
2. CCOC(=O)c1c(C)[nH]c(C)c1C(=O)CSc1nc(N)cc(N)n1 | 49.1
3. CCOc1ccc(CC(=O)NC2CCN(Cc3ccccc3)CC2)cc1 | 7.65
4. COc1ccccc1CNC(=O)C1CCN(c2nc3ccccc3o2)CC1 | 9.79
5. O=c1cc(CN2CCN(c3cccc(Cl)c3)CC2)c2cc3c(cc2o1)CCCC3 | -7.58
6. Cc1cccc(C(=O)OC(C)CN2CCCC2)c1 (centres undefined) | -14
7. O=C(CCc1ccccc1)NNC(=O)c1ccc(Br)cc1 | -5.25
8. CC(=O)Nc1ccccc1NC(=O)c1cc(C)cc(C)c1 | 13.8

# batch: return inhibition for each of the 5 compounds below
1. C/C(=N/NC(=O)c1ccc(NC(=O)c2ccc(F)cc2)cc1)c1ccccc1
2. CN(CC(=O)Nc1c(Cl)cccc1Cl)C(=O)CC1OC(=O)c2ccccc21 (centres undefined)
3. CC(C(=O)Nc1ccc(S(=O)(=O)N2CCCC2)cc1)N(C)Cc1ccc(F)cc1 (centres undefined)
4. Cc1ccc(C(=O)OC(C)CN2CCOCC2)cc1 (centres undefined)
5. CCCCC(=O)NNC(=S)NC(=O)C(c1ccccc1)c1ccccc1

Found:
14.8
4.45
-65.3
12.8
40.2
